- ASSAY NOTES: Phase 1 single-rising dose (SRD, Part 1) plasma PK in healthy subjects
- Assay type: in vivo, human
- REPORTED CONDITIONS: both sexes, human, plasma, oral; range across single dose levels; read-out: mean Vz/F
MEASURED ATTRIBUTE: Vd/F

Data request: Tell me measured Vd/F for `CC1=CN2CCS(=O)(=O)N=C2C(c2ccc(OC3CCCCC3)cc2)=N1` please.
Data returned: 95.1 to 133 L

----------
- ASSAY NOTES: Phase 1 SRD/multiple-rising dose (MRD, Part 2) plasma PK in healthy subjects
- Assay type: in vivo, human
- REPORTED CONDITIONS: both sexes, human, plasma, oral, 3 mg, 3 mg QD, Study Day 6; median; read-out: tmax
- Experimental: The study was designed to assess the safety, tolerability, PK, and PD of COMPOUND A. A total of 88 subjects were enrolled in 6 SRD and 5 SRD/MRD cohorts (n=8 per cohort). The study was composed of 2 parts. […] Referring now to FIG. 3, mean plasma concentration-time profiles (linear and semilog scales) of COMPOUND A were determined on Day 18 following oral administration of COMPOUND A QD for 13 days.
MEASURED ATTRIBUTE: Tmax (h)
Write the number in h without appending the unit.

Data request: Tell me measured Tmax for `CC1=CN2CCS(=O)(=O)N=C2C(c2ccc(OC3CCCCC3)cc2)=N1` please.
Data returned: 1.54

----------
- ASSAY NOTES: 14-day rat neurotoxicology study: toxicokinetics
- Type: in vivo, Sprague-Dawley rats
- REPORTED CONDITIONS: female, Sprague-Dawley, rat, plasma, po, 100 mg/kg/day, 100 mg/kg/day oral, female, Day 2; read-out: AUC24
- Description: An appropriate amount of methylcellulose (MC) was weighed and mixed with a small amount of warm water for injection. The mixture was then diluted with water for injection to make a 0.5% (w/v) MC solution. […] Referring to Tables 4A and 4B, the plasma concentrations of COMPOUND A on Days 2, 7, and 14 were determined in each satellite group. […] In addition, the plasma concentrations of COMPOUND A before scheduled necropsy were determined in each main study group. […]
MEASURED ATTRIBUTE: AUC (ng·h/mL)
Write the number in ng·h/mL without appending the unit.

Data request: Tell me measured AUC for `CC1=CN2CCS(=O)(=O)N=C2C(c2ccc(OC3CCCCC3)cc2)=N1` please.
Data returned: 20500

----------
- ASSAY NOTES: 14-day rat neurotoxicology study: toxicokinetics
- Assay type: in vivo, Sprague-Dawley rats
- REPORTED CONDITIONS: female, Sprague-Dawley, rat, plasma, po, 200 mg/kg/day, 200 mg/kg/day oral, female, Day 14; read-out: AUC24
MEASURED ATTRIBUTE: AUC

Data request: Tell me measured AUC for CC1=CN2CCS(=O)(=O)N=C2C(c2ccc(OC3CCCCC3)cc2)=N1 [COMPOUND A] please.
Data returned: 27600 ng·h/mL

----------
- ASSAY NOTES: Phase 1 SRD/multiple-rising dose (MRD, Part 2) plasma PK in healthy subjects
- Format: in vivo, human
- REPORTED CONDITIONS: both sexes, human, plasma, oral; 1 mg QD cohort, Study Day 1; mean; read-out: Vz/F
MEASURED ATTRIBUTE: Vd/F
Give the number first and the unit second.

Data request: Tell me measured Vd/F for CC1=CN2CCS(=O)(=O)N=C2C(c2ccc(OC3CCCCC3)cc2)=N1 [COMPOUND A] please.
Data returned: 133 L

----------
- ASSAY NOTES: 14-day rat neurotoxicology study: toxicokinetics
- Type: in vivo, Sprague-Dawley rats
- REPORTED CONDITIONS: female, Sprague-Dawley, rat, plasma, po, 100 mg/kg/day, 100 mg/kg/day oral, female, Day 2
- Method: An appropriate amount of methylcellulose (MC) was weighed and mixed with a small amount of warm water for injection. The mixture was then diluted with water for injection to make a 0.5% (w/v) MC solution. […] Referring to Tables 4A and 4B, the plasma concentrations of COMPOUND A on Days 2, 7, and 14 were determined in each satellite group. […] In addition, the plasma concentrations of COMPOUND A before scheduled necropsy were determined in each main study group. […]
MEASURED ATTRIBUTE: Cmax (ng/mL)
Write the number in ng/mL without appending the unit.

Data request: Tell me measured Cmax for `CC1=CN2CCS(=O)(=O)N=C2C(c2ccc(OC3CCCCC3)cc2)=N1` please.
Data returned: 1640

----------
- ASSAY NOTES: Phase 1 SRD/multiple-rising dose (MRD, Part 2) plasma PK in healthy subjects
- Assay type: in vivo, human
- REPORTED CONDITIONS: both sexes, human, plasma, oral; 9 mg QD cohort, Study Day 1; mean
MEASURED ATTRIBUTE: AUC(0-inf) (ng·h/mL)
Write the number in ng·h/mL without appending the unit.

Data request: Tell me measured AUC(0-inf) for `CC1=CN2CCS(=O)(=O)N=C2C(c2ccc(OC3CCCCC3)cc2)=N1` please.
Data returned: 5760

----------
- ASSAY NOTES: Phase 1 SRD/multiple-rising dose (MRD, Part 2) plasma PK in healthy subjects
- Format: in vivo, human
- REPORTED CONDITIONS: both sexes, human, plasma, oral, 3 mg, 3 mg QD cohort, Study Day 1; mean; read-out: Cmax
MEASURED ATTRIBUTE: Cmax (µg/mL)
Write the number in µg/mL without appending the unit.

Data request: Tell me measured Cmax for `CC1=CN2CCS(=O)(=O)N=C2C(c2ccc(OC3CCCCC3)cc2)=N1` please.
Data returned: 0.0287

----------
- ASSAY NOTES: Phase 1 single-rising dose (SRD, Part 1) plasma PK in healthy subjects
- Format: in vivo, human
- REPORTED CONDITIONS: both sexes, human, plasma; single oral 5 mg; mean, N = 6; read-out: AUC∞
MEASURED ATTRIBUTE: AUC(0-inf) (ng·h/mL)
Write the number in ng·h/mL without appending the unit.

Data request: Tell me measured AUC(0-inf) for CC1=CN2CCS(=O)(=O)N=C2C(c2ccc(OC3CCCCC3)cc2)=N1 [COMPOUND A] please.
Data returned: 2650

----------
- ASSAY NOTES: 14-day rat neurotoxicology study: toxicokinetics
- Assay type: in vivo, Sprague-Dawley rats
- REPORTED CONDITIONS: male, Sprague-Dawley, rat, plasma, po, 100 mg/kg/day, 100 mg/kg/day oral, male, Day 2; read-out: AUC24
MEASURED ATTRIBUTE: AUC
Give the number first and the unit second.

Data request: Tell me measured AUC for `CC1=CN2CCS(=O)(=O)N=C2C(c2ccc(OC3CCCCC3)cc2)=N1` please.
Data returned: 15000 ng·h/mL

----------
- ASSAY NOTES: Phase 1 SRD/multiple-rising dose (MRD, Part 2) plasma PK in healthy subjects
- Type: in vivo, human
- REPORTED CONDITIONS: both sexes, human, plasma, oral; 9 mg QD cohort, Study Day 1; mean
MEASURED ATTRIBUTE: AUC(0-t)

Data request: Tell me measured AUC(0-t) for `CC1=CN2CCS(=O)(=O)N=C2C(c2ccc(OC3CCCCC3)cc2)=N1` please.
Data returned: 4430 ng·h/mL

----------
- ASSAY NOTES: Phase 1 SRD/multiple-rising dose (MRD, Part 2) plasma PK in healthy subjects
- Type: in vivo, human
- REPORTED CONDITIONS: both sexes, human, plasma, oral, 6 mg, 6 mg QD cohort, Study Day 1; median; read-out: tmax
MEASURED ATTRIBUTE: Tmax (h)
Write the number in h without appending the unit.

Data request: Tell me measured Tmax for CC1=CN2CCS(=O)(=O)N=C2C(c2ccc(OC3CCCCC3)cc2)=N1 [COMPOUND A] please.
Data returned: 5

----------
- ASSAY NOTES: 14-day rat neurotoxicology study: toxicokinetics
- Assay type: in vivo, Sprague-Dawley rats
- REPORTED CONDITIONS: female, Sprague-Dawley, rat, plasma, po, 100 mg/kg/day, 100 mg/kg/day oral, female, Day 7
MEASURED ATTRIBUTE: Cmax (ng/mL)
Write the number in ng/mL without appending the unit.

Data request: Tell me measured Cmax for `CC1=CN2CCS(=O)(=O)N=C2C(c2ccc(OC3CCCCC3)cc2)=N1` please.
Data returned: 1270

----------
- ASSAY NOTES: 14-day rat neurotoxicology study: toxicokinetics
- Assay type: in vivo, Sprague-Dawley rats
- REPORTED CONDITIONS: female, Sprague-Dawley, rat, plasma, oral, 200 mg/kg/day, Day 15, females at 200 mg/kg/day with lesions visible with Fluoro-Jade only; individual animals; read-out: plasma level at the time of sacrifice
MEASURED ATTRIBUTE: concentration at 15 day

Data request: Tell me measured concentration at 15 day for `CC1=CN2CCS(=O)(=O)N=C2C(c2ccc(OC3CCCCC3)cc2)=N1` please.
Data returned: 182 ng/mL
